Tested on: HEK293/CRE-Luc cells
experimental.details: Luciferase reporter assay, HEK293/CRE-Luc cells without GLP1R (Example 17)
Assay type: cell-based, human
cond: HEK293/CRE-Luc cells without hGLP1R; payloads and linker-payloads
Where a SMILES comes first, the peptide text is derived from it. [ ]: non-standard residue; d: D form. Bip(2'-Et,4'-O(CH2)4NH2) = CCc1cc(OCCCCN)ccc1-c1ccc(C[C@H](N)C(=O)O)cc1; Nva(5-(3,5-Me2Ph)) = Cc1cc(C)cc(CCC[C@H](N)C(=O)O)c1; Ala(1H-tetrazol-5-yl) = N[C@@H](Cc1nnn[nH]1)C(=O)O; αMePhe(2-F) = C[C@](N)(Cc1ccccc1F)C(=O)O
quantity.kind: S/N
Numbers only.

Task: Which measured S/N value corresponds to CCc1cc(OCCCCN)ccc1-c1ccc(C[C@H](NC(=O)[C@H](CC(=O)O)NC(=O)[C@H](CO)NC(=O)[C@@H](NC(=O)[C@](C)(Cc2ccccc2F)NC(=O)[C@@H](NC(=O)CNC(=O)[C@H](Cc2nn[nH]n2)NC(=O)[C@H](C)NC(=O)[C@@H](N)Cc2cnc[nH]2)[C@@H](C)O)[C@@H](C)O)C(=O)N[C@@H](CCCc2cc(C)cc(C)c2)C(N)=O)cc1 [P10] (H-HA[Ala(1H-tetrazol-5-yl)]GT[αMePhe(2-F)]TSD[Bip(2'-Et,4'-O(CH2)4NH2)][Nva(5-(3,5-Me2Ph))]-NH2) ?
Result: 1.2
